These entries and their values trace back to PubChem BioAssay (NCI).

tested on: TK-10 renal; assay: NCI-60 one-dose screen, 48 h (100 = growth as untreated, 0 = no growth, -100 = all killed); conditions: 10 µM
Compounds without any hit were thinned out: in the full panel of roughly 83,000, 20% have a hit.
Could you please mark 1 for values of growth below 90% and 0 for values at or above it?

For orientation, consider the following solved cases.
- molecule: "COc1ccc(C2c3sc4ccc(C)cc4c3Oc3nc[nH]c(=O)c32)cc1 (stereo not drawn)"
  label: 0
- molecule: "COc1ccc2[nH]cc(-c3nc(N)nnc3-c3cn(C)c4ncc(Br)cc34)c2c1"
  label: 1
- molecule: "Fc1ccc(/C=C/c2nc3ccccc3n3c(-c4ccc(Cl)cc4)nnc23)cc1"
  label: 0
- molecule: "COc1cc(-c2nc3ccc(C)cc3[nH]2)ccc1OCc1nnc(-c2ccccc2Br)o1"
  label: 0
- molecule: "COc1ccc(NCc2cn(-c3ccc(C(=O)O)cc3)nc2-c2ccc(F)cc2)cc1C(F)(F)F"
  label: 0
- molecule: "Fc1ccc(-c2csc(Nc3cccc(Nc4nc(-c5ccc(F)cc5)cs4)c3)n2)cc1"
  label: 0
- molecule: "O=C(CC(=O)Nc1ccc(Oc2ncnc3scc(Nc4n[nH]c(=S)s4)c23)cc1)Nc1ccc(Cl)cc1"
  label: 0
- molecule: "COc1cc2oc(-c3cccc(C(=O)Nc4ccc(Cl)cc4)c3)cc(=O)c2c(OCCNC(=O)[C@@H](N)CO)c1OC"
  label: 0
- molecule: "COc1ccc(Cc2nn(CC(=O)N/N=C/c3ccc(Br)cc3)c(=O)c3c(C)noc23)cc1"
  label: 1
- molecule: "COc1ccc(Cn2cc(C#N)c(N)c2C(C)=O)c(OC)c1"
  label: 0

Exercise: API: query returns whether the molecule falls strictly under 90% in growth. Query: `C#C[C@]1(O)CC[C@H]2[C@@H]3CC=C4c5sc(Nc6ccc(N(C)C)cc6)nc5CC[C@]4(C)[C@H]3CC[C@@]21C`
Key: 1

Exercise: Could you please tell me whether growth recorded for COc1cc(C2CC(c3ccc(Oc4ccc(Cl)cc4)cc3)=NN2c2nc(-c3ccc(Cl)cc3)c(C#N)c(N3CCOCC3)n2)cc(OC)c1OC (stereo not drawn) is less than 90%?
Key: 0

* * *

test system: MDA-MB-468 breast; test: NCI-60 one-dose screen, 48 h (100 = growth as untreated, 0 = no growth, -100 = all killed); details: 10 µM unless noted
The panel holds about 83,000 compounds, 20% with a hit somewhere; the sample as a whole holds those more often.
measured.endpoint: growth (%)
Give bare numbers, in %.

// below: answered compounds
- compound: "CC(C)CC(NC(=O)OCC1c2ccccc2-c2ccccc21)C(=O)O (stereo not given)"
  measured.endpoint: "growth"
  reported: 103
- compound: "COc1ccc(Nc2ncccc2NC(=O)c2cn(Cc3cccc(Oc4ccccc4)c3)nn2)cc1"
  measured.endpoint: "growth"
  reported: 89.8
- compound: "CC(=O)O[C@@H]1CC2C(C)(C)CCCC2(C)C2=C1C(=O)C(C(C)C)=CC2=O (stereo not given in full)"
  measured.endpoint: "growth"
  reported: -35.6
- compound: "CCCCCCCCCCCCCCCCCC1=NC(C)(C)CN1CC(C)O (stereo not given)"
  measured.endpoint: "growth"
  reported: 115
- compound: "COc1cc(C2CC(=O)Nc3c2c(C)nn3-c2nc3ccccc3[nH]2)cc(OC)c1OC (stereo not given)"
  measured.endpoint: "growth"
  reported: 96.9

Can you give me growth for all of these, one by one?
1. COC(=O)C1(O)NC(=C(C#N)C#N)C(C#N)=C1C(=O)c1ccc(OC)c(OC)c1 (stereo not given)
2. CCOC(=O)c1c(NCC(=O)Nc2cccc(Cl)c2)sc2c1CCCC2
3. COc1cc2c(cc1-c1c(C)noc1C)ncc1nc(CN3CCOCC3)n([C@H](C)COC(F)F)c12
4. Cc1nc2ccccc2c(/C=C/c2ccc(Br)cc2)c1C(=O)/C=C/c1ccccc1
5. CCOc1nc(-c2ccccc2)cc2c(O)c(C(=O)NCCCO)[nH]c(=O)c12
6. CC1(C)C(N)=Nc2cc(OCCCN3Cc4ccc(OCCc5cn(CC(=O)N6CCC(CCN7CCCC7)CC6)nn5)cc4C3)c(OCC3CC3)cc21
7. Clc1ccc(/C=C2\CCCC3C2=Nc2ccccc2NC3c2ccc(Cl)cc2)cc1 (stereo not given)
8. CN1CCN(CC(=O)Nc2nc3c(s2)Nc2cc(Cl)c(Cl)cc2NC3=O)CC1

Key:
[110, 73, 29.6, -15.5, 95, 108, 60, 114]

For every listed record, write down its growth.
1. Nc1ccn(C2O[C@H](CO)[C@@H](O)[C@H]2O)c(=O)n1 (stereo not given in full)
2. COc1ccc(/C=C(\C#N)n2nnc3cc(F)c(F)cc32)c(OC)c1OC
3. O=C1CN(CCN2CC(=O)N(Cc3ccccc3)C(=O)C2)CC(=O)N1Cc1ccccc1
4. O=c1cc2oc3cc(O)c(O)cc3c(-c3ccccc3O)c-2cc1O
5. N#Cc1c(N)n2c(nc1=Nc1ccc(Cl)cc1)sc1cc(Cl)ccc12
6. COc1ccc(CC(C#N)c2cc3ccccc3[nH]2)cc1 (stereo not given)

Key:
[96.8, 35.3, 107, 93.9, 22.5, 89.6]

Exercise: Item under review: `CN1CCN(Cc2ccc(NC(=O)c3cncc(C#Cc4ncc5cnccn45)c3)cc2C(F)(F)F)CC1` . Reported growth?
Key: 86.7
